- assayComment: Cobimetinib plasma pharmacokinetics in iMATRIX-cobi
- Type: in vivo, human
- particulars: human, plasma, oral, 1 mg/kg, Steady state Cmax, geometric mean (%CV), 1.0 mg/kg suspension, dose escalation (n = 8)
endpointLabel: Cmax (ng/mL)
Hi! Could you send only the number? It should be in ng/mL, unit omitted.

Data request, read-out Cmax, for O=C(c1ccc(F)c(F)c1Nc1ccc(I)cc1F)N1CC(O)([C@@H]2CCCCN2)C1 [cobimetinib]
179

Numbers sourced from paper PMC9217999.
